Below, each of the compounds is paired with its reported Plant response rating, Crabgrass, Large value.
# System: crabgrass, large
# Protocol Description: Test A pre-/postemergence herbicide test
# Assay type: in vivo, Digitaria sanguinalis
# Test Context: Postemergence, 125 g ai/ha; 0 to 100 scale, 0 no effect, 100 complete control
Value Type: Plant response rating, Crabgrass, Large

compound="O=C1NCC(c2ccc(Cl)c(Cl)c2)C1C(=O)Nc1ccccc1OC(F)(F)F (racemic)" value_type="Plant response rating, Crabgrass, Large" measurement=0
compound="O=C1NCC(c2ccc3ccccc3c2)C1C(=O)Nc1cccc(F)c1F (racemic)" value_type="Plant response rating, Crabgrass, Large" measurement=20
compound="COc1cccc(C2CNC(=O)C2C(=O)Nc2ccccc2F)c1 (racemic)" value_type="Plant response rating, Crabgrass, Large" measurement=0
compound="O=C1NCC(c2ccc(F)c(F)c2)C1C(=O)Nc1cccc[n+]1[O-] (stereo not shown)" value_type="Plant response rating, Crabgrass, Large" measurement=0

* * *

# Tested on: crabgrass, large
# Protocol Description: Test A pre-/postemergence herbicide test
# Format: in vivo, Digitaria sanguinalis
# Test Context: Preemergence, 125 g ai/ha; visual rating on 0 to 100 scale (0 no effect, 100 complete control)
Value Type: Crabgrass, Large plant response rating

compound="O=C1NCC(c2ccc(Cl)cc2Cl)C1C(=O)Nc1ccccc1F (racemic) [Compound 91]" value_type="Crabgrass, Large plant response rating" measurement=40
compound="O=C1NCC(c2ccccc2F)C1C(=O)Nc1ccccc1F (racemic) [Compound 85]" value_type="Crabgrass, Large plant response rating" measurement=30
compound="O=C1NCC(c2ccccc2)C1C(=O)Nc1ccccc1Cl (racemic) [Compound 83]" value_type="Crabgrass, Large plant response rating" measurement=70
compound="O=C1NCC(c2ccc(F)c(F)c2)C1C(=O)Nc1cccc[n+]1[O-] (centres unmarked) [Compound 47]" value_type="Crabgrass, Large plant response rating" measurement=10
compound="O=C1NCC(c2ccc(Cl)c(Cl)c2)C1C(=O)Nc1ccccc1F (racemic) [Compound 14]" value_type="Crabgrass, Large plant response rating" measurement=90
compound="O=C1NCC(c2ccc(C(F)(F)F)cc2)C1C(=O)Nc1ccccc1F (centres unmarked) [Compound 79]" value_type="Crabgrass, Large plant response rating" measurement=90
compound="O=C1NCC(c2ccc3c(c2)OC(F)(F)O3)C1C(=O)Nc1ccccc1C(F)(F)F (racemic) [Compound 75]" value_type="Crabgrass, Large plant response rating" measurement=90
compound="O=C1NCC(c2cc(F)c(F)c(F)c2)C1C(=O)Nc1cccc(F)c1F (centres unmarked) [Compound 48]" value_type="Crabgrass, Large plant response rating" measurement=90

* * *

# System: ragweed
# Protocol Description: Test C pre-/postemergence herbicide test
# Format: in vivo, Ambrosia elatior
# Test Context: Postemergence, 62 g ai/ha; scale 0 (no effect) to 100 (complete control)
Value Type: Plant response rating, Ragweed

compound="O=C1NCC(c2cccc(OC(F)F)c2)C1C(=O)Nc1ccccc1F (stereo not shown)" value_type="Plant response rating, Ragweed" measurement=0
compound="O=C1NCC(c2cccc(OC(F)F)c2)C1C(=O)Nc1cccc(F)c1F (stereo not shown)" value_type="Plant response rating, Ragweed" measurement=65
compound="CN1CC(c2ccc(F)c(F)c2)C(C(=O)Nc2cccc(F)c2F)C1=O (stereo not shown)" value_type="Plant response rating, Ragweed" measurement=0
compound=O=C1NC[C@H](c2cccc(C(F)(F)F)c2)[C@H]1C(=O)Nc1ccccc1F value_type="Plant response rating, Ragweed" measurement=0

* * *

# Test system: kochia
# Protocol Description: Test A pre-/postemergence herbicide test
# Type: in vivo, Kochia scoparia
# Test Context: Postemergence, 500 g ai/ha
Value Type: Kochia plant response rating (0 to 100 scale, 0 is no effect, 100 is complete control)

molecule="O=C1NCC(c2ccc(F)cc2)C1C(=O)Nc1ccc(F)c(F)c1F (racemic) [Compound 120]" measurement=70
molecule="O=C1NC[C@H](c2cccc(C(F)(F)F)c2)[C@H]1C(=O)Nc1ccccc1F [Compound 204]" measurement=60
molecule="Cc1cc(C2CNC(=O)C2C(=O)Nc2ccc(F)cc2F)ccc1F (racemic) [Compound 140]" measurement=0
molecule="O=C1NCC(c2cccc(C(F)F)c2)C1C(=O)Nc1ccccc1C(F)(F)F (racemic) [Compound 212]" measurement=20
molecule="O=C1NCC(c2cc(F)cc(F)c2)C1C(=O)Nc1ccc(F)cc1F (racemic) [Compound 156]" measurement=20
molecule="COc1cc(C2CNC(=O)C2C(=O)Nc2ccc(F)cc2F)ccc1F (racemic) [Compound 131]" measurement=0
molecule="O=C1NCC(c2cccc(S(F)(F)(F)(F)F)c2)C1C(=O)Nc1ccccc1C(F)(F)F (centres unmarked) [Compound 215]" measurement=0
molecule="Cc1cccc(NC(=O)C2C(=O)NCC2c2cccc(C(F)(F)F)c2)c1F (racemic) [Compound 184]" measurement=0

* * *

Below, each of the compounds is paired with its reported Barnyardgrass plant response rating value.
# Tested on: barnyardgrass
# Protocol Description: Test A pre-/postemergence herbicide test
# Assay type: in vivo, Echinochloa crus-galli
# Test Context: Preemergence, 125 g ai/ha; visual rating on 0 to 100 scale (0 no effect, 100 complete control)
Value Type: Barnyardgrass plant response rating

compound="O=C1NCC(c2cccc(C(F)(F)F)c2)C1C(=O)Nc1ccccn1 (racemic)" target_desc=barnyardgrass value_type="Barnyardgrass plant response rating" measurement=70
compound="O=C1NCC(c2cc(F)c(F)c(F)c2)C1C(=O)Nc1cccc([N+](=O)[O-])c1 (stereo not drawn)" target_desc=barnyardgrass value_type="Barnyardgrass plant response rating" measurement=0
compound="O=C1NCC(c2ccc(Cl)c(Cl)c2)C1C(=O)Nc1ccccc1OC(F)(F)F (racemic)" target_desc=barnyardgrass value_type="Barnyardgrass plant response rating" measurement=0
compound="CC1(C(=O)Nc2cccc(F)c2F)C(=O)NCC1c1ccc(F)c(Cl)c1 (stereo not drawn)" target_desc=barnyardgrass value_type="Barnyardgrass plant response rating" measurement=0
compound="Cc1ccccc1NC(=O)C1C(=O)NCC1c1cccc(C(F)(F)F)c1 (racemic)" target_desc=barnyardgrass value_type="Barnyardgrass plant response rating" measurement=80
compound="CC1NC(=O)C(C(=O)Nc2ccccc2C(F)(F)F)C1c1ccc(F)c(F)c1 (mixture of isomers)" target_desc=barnyardgrass value_type="Barnyardgrass plant response rating" measurement=20
compound="Cc1cccc(NC(=O)C2C(=O)NCC2c2ccc(F)c(F)c2)c1 (stereo not drawn)" target_desc=barnyardgrass value_type="Barnyardgrass plant response rating" measurement=0
compound="O=C1NCC(c2ccc(F)c(F)c2)C1C(=O)Nc1ccccc1C(F)(F)F (racemic)" target_desc=barnyardgrass value_type="Barnyardgrass plant response rating" measurement=50
compound="O=C1NCCC1C(=O)N(c1ccc(F)c(F)c1)c1ccccc1F (stereo not drawn)" target_desc=barnyardgrass value_type="Barnyardgrass plant response rating" measurement=70

* * *

Below, each of the molecules is paired with its reported Plant response rating, Ducksalad value.
# System: ducksalad
# Protocol Description: Test C flooded paddy test
# Type: in vivo, Heteranthera limosa
# Test Context: Flood, 31 g ai/ha; scale of 0 to 100 where 0 is no effect and 100 is complete control; 13 to 15 days
Value Type: Plant response rating, Ducksalad

molecule="O=C1NCC(c2ccsc2)C1C(=O)Nc1ccccc1F (racemic)" value_type="Plant response rating, Ducksalad" measurement=0
molecule="O=C1NCC(c2cccc(OC(F)F)c2)C1C(=O)Nc1cccc(F)c1F (stereo not drawn)" value_type="Plant response rating, Ducksalad" measurement=0
molecule="CS(=O)(=O)c1ccccc1NC(=O)C1C(=O)NCC1c1ccc(F)c(F)c1 (racemic)" value_type="Plant response rating, Ducksalad" measurement=0
molecule="CC(C)c1cccc(C2CNC(=O)C2C(=O)Nc2ccccc2F)c1 (stereo not drawn)" value_type="Plant response rating, Ducksalad" measurement=50
molecule="O=C1NCC(c2ccc(F)c(F)c2)C1C(=O)Nc1cccc(Cl)c1 (racemic)" value_type="Plant response rating, Ducksalad" measurement=0
molecule="O=C1NCC(c2ccc(C(F)(F)F)cc2)C1C(=O)Nc1cccc(F)c1F (stereo not drawn)" value_type="Plant response rating, Ducksalad" measurement=70

* * *

Below, each of the molecules is paired with its reported Plant response rating, Ryegrass, Italian value.
# System: ryegrass, Italian
# Protocol Description: Test C pre-/postemergence herbicide test
# Format: in vivo, Lolium multiflorum
# Test Context: Postemergence; 250 g ai/ha; scale 0 to 100 (0 no effect, 100 complete control)
Value Type: Plant response rating, Ryegrass, Italian

molecule="O=C1NCC(c2ccc(C(F)(F)F)cc2)C1C(=O)Nc1cccc(F)c1F (racemic)" measurement=35
molecule=O=C1NC[C@H](c2cccc(C(F)(F)F)c2)[C@H]1C(=O)Nc1cccc(F)c1F measurement=35
molecule="O=C1NCC(c2cccc(OC(F)F)c2)C1C(=O)Nc1cccc(F)c1F (stereo not drawn)" measurement=5
molecule="Cc1ccccc1NC(=O)C1C(=O)NCC1c1cccc(C(F)(F)F)c1 (racemic)" measurement=0
molecule="O=C1NCC(c2ccc(F)cc2)C1C(=O)Nc1ccc(F)c(F)c1F (racemic)" measurement=10
molecule="CN1CC(c2cccc(C(F)(F)F)c2)C(C(=O)Nc2cccc(F)c2F)C1=O (stereo not drawn)" measurement=45
